Recorded values, source patent US4035381A.

tested on: Str. pyogenes A9604; test: Antibiotic activity in nutrient broth (MIC), Str. pyogenes; format: cell-based; conditions: Streptococcus pyogenes, 45% AAB + 5% serum + 50% broth, 10^-3 dilution of overnight culture, Ex. 1/Ex. 2 figures recalculated on penicillin content
quantity-name: MIC (ng/mL)

compound	value-relation-sign	test-result
CC1(C)S[C@@H]2[C@H](NC(=O)[C@H](N)c3ccccc3)C(=O)N2[C@H]1C(=O)O [Ampicillin, D(-)-α-aminobenzyl-penicillin, reference compound]	=	8
CC1(C)S[C@@H]2[C@H](NC(=O)[C@H](N)c3ccc(O)cc3)C(=O)N2[C@H]1C(=O)O [Amoxicillin, D(-)-α-amino-p-hydroxybenzylpenicillin, reference compound]	≤	2
CC1(C)S[C@@H]2[C@H](N3C(=O)[C@@H](c4ccccc4)NC3c3ccc(S(=O)(=O)O)o3)C(=O)N2[C@H]1C(=O)O (mixture of isomers) [Example 2]	=	4
CC1(C)S[C@@H]2[C@H](N3C(=O)[C@@H](c4ccc(O)cc4)NC3c3ccc(S(=O)(=O)O)o3)C(=O)N2[C@H]1C(=O)O (mixture of isomers) [Example 1]	=	0.5

* * *

Measured MIC (E. coli Juhl A15119)

compound	system-name	MIC (µg/mL)
CC1(C)S[C@@H]2[C@H](N3C(=O)[C@@H](c4ccc(O)cc4)NC3c3ccc(S(=O)(=O)O)o3)C(=O)N2[C@H]1C(=O)O (mixture of isomers) [Example 1]	E. coli Juhl A15119	1
CC1(C)S[C@@H]2[C@H](NC(=O)[C@H](N)c3ccc(O)cc3)C(=O)N2[C@H]1C(=O)O [Amoxicillin, D(-)-α-amino-p-hydroxybenzylpenicillin, reference compound]	E. coli Juhl A15119	0.5
CC1(C)S[C@@H]2[C@H](N3C(=O)[C@@H](c4ccccc4)NC3c3ccc(S(=O)(=O)O)o3)C(=O)N2[C@H]1C(=O)O (mixture of isomers) [Example 2]	E. coli Juhl A15119	2
CC1(C)S[C@@H]2[C@H](NC(=O)[C@H](N)c3ccccc3)C(=O)N2[C@H]1C(=O)O [Ampicillin, D(-)-α-aminobenzyl-penicillin, reference compound]	E. coli Juhl A15119	2

* * *

Entries and their measured Mouse blood level follow.
test: Mouse blood levels after intramuscular administration; details: 10 mg./kg., 0.25 hours, average of six animals, unit assumed

compound	Mouse blood level, µg/mL
CC1(C)S[C@@H]2[C@H](N3C(=O)[C@@H](c4ccccc4)NC3c3ccc(S(=O)(=O)O)o3)C(=O)N2[C@H]1C(=O)O (mixture of isomers)	6.3
CC1(C)S[C@@H]2[C@H](N3C(=O)[C@@H](c4ccc(O)cc4)NC3c3ccc(S(=O)(=O)O)o3)C(=O)N2[C@H]1C(=O)O (mixture of isomers)	7.3
CC1(C)S[C@@H]2[C@H](NC(=O)[C@H](N)c3ccc(O)cc3)C(=O)N2[C@H]1C(=O)O [Amoxicillin, D(-)-α-amino-p-hydroxybenzylpenicillin, reference compound]	7.7

* * *

experiment: Mouse blood levels after intramuscular administration; conditions: 10 mg./kg., 1.5 hours, average of six animals, unit assumed
Entries and their measured Mouse blood level follow.

molecule	Mouse blood level [µg/mL]
CC1(C)S[C@@H]2[C@H](N3C(=O)[C@@H](c4ccccc4)NC3c3ccc(S(=O)(=O)O)o3)C(=O)N2[C@H]1C(=O)O (mixture of isomers)	0.6
CC1(C)S[C@@H]2[C@H](N3C(=O)[C@@H](c4ccc(O)cc4)NC3c3ccc(S(=O)(=O)O)o3)C(=O)N2[C@H]1C(=O)O (mixture of isomers)	1.1
CC1(C)S[C@@H]2[C@H](NC(=O)[C@H](N)c3ccc(O)cc3)C(=O)N2[C@H]1C(=O)O [Amoxicillin, D(-)-α-amino-p-hydroxybenzylpenicillin, reference compound]	0.6

* * *

Entries and their measured MIC follow.
system: Str. pneumoniae A9585; assay: Antibiotic activity in nutrient broth (MIC), Str. pneumoniae; assay type: cell-based; details: Streptococcus pneumoniae, 45% AAB + 5% serum + 50% broth, 10^-3 dilution of overnight culture, Ex. 1/Ex. 2 figures recalculated on penicillin content
quantity-name: MIC (ng/mL)

molecule	quantity-name	measure-unit	value-relation-sign	test-result
CC1(C)S[C@@H]2[C@H](N3C(=O)[C@@H](c4ccccc4)NC3c3ccc(S(=O)(=O)O)o3)C(=O)N2[C@H]1C(=O)O (mixture of isomers)	MIC	ng/mL	=	4
CC1(C)S[C@@H]2[C@H](NC(=O)[C@H](N)c3ccc(O)cc3)C(=O)N2[C@H]1C(=O)O [Amoxicillin, D(-)-α-amino-p-hydroxybenzylpenicillin, reference compound]	MIC	ng/mL	≤	2
CC1(C)S[C@@H]2[C@H](NC(=O)[C@H](N)c3ccccc3)C(=O)N2[C@H]1C(=O)O [Ampicillin, D(-)-α-aminobenzyl-penicillin, reference compound]	MIC	ng/mL	=	8
CC1(C)S[C@@H]2[C@H](N3C(=O)[C@@H](c4ccc(O)cc4)NC3c3ccc(S(=O)(=O)O)o3)C(=O)N2[C@H]1C(=O)O (mixture of isomers)	MIC	ng/mL	=	0.5

* * *

assay: Mouse blood levels after intramuscular administration; settings: 10 mg./kg., 0.5 hours, average of six animals, unit assumed
Entries and their measured Mouse blood level follow.
quantity-name: Mouse blood level

molecule	quantity-name	test-result
CC1(C)S[C@@H]2[C@H](N3C(=O)[C@@H](c4ccc(O)cc4)NC3c3ccc(S(=O)(=O)O)o3)C(=O)N2[C@H]1C(=O)O (mixture of isomers)	Mouse blood level	5.4 µg/mL
CC1(C)S[C@@H]2[C@H](N3C(=O)[C@@H](c4ccccc4)NC3c3ccc(S(=O)(=O)O)o3)C(=O)N2[C@H]1C(=O)O (mixture of isomers)	Mouse blood level	3.7 µg/mL
CC1(C)S[C@@H]2[C@H](NC(=O)[C@H](N)c3ccc(O)cc3)C(=O)N2[C@H]1C(=O)O [Amoxicillin, D(-)-α-amino-p-hydroxybenzylpenicillin, reference compound]	Mouse blood level	4.3 µg/mL

* * *

assay: Mouse blood levels after intramuscular administration; settings: 10 mg./kg., 1 hour, average of six animals, unit assumed
Entries and their measured Mouse blood level follow.
quantity-name: Mouse blood level (µg/mL)

compound	quantity-name	measure-unit	test-result
CC1(C)S[C@@H]2[C@H](N3C(=O)[C@@H](c4ccc(O)cc4)NC3c3ccc(S(=O)(=O)O)o3)C(=O)N2[C@H]1C(=O)O (mixture of isomers) [Example 1]	Mouse blood level	µg/mL	2.1
CC1(C)S[C@@H]2[C@H](N3C(=O)[C@@H](c4ccccc4)NC3c3ccc(S(=O)(=O)O)o3)C(=O)N2[C@H]1C(=O)O (mixture of isomers) [Example 2]	Mouse blood level	µg/mL	1.3
CC1(C)S[C@@H]2[C@H](NC(=O)[C@H](N)c3ccc(O)cc3)C(=O)N2[C@H]1C(=O)O [Amoxicillin, D(-)-α-amino-p-hydroxybenzylpenicillin, reference compound]	Mouse blood level	µg/mL	1.9

* * *

Measured MIC (Ser. marcescens A20019)

molecule	MIC, µg/mL
CC1(C)S[C@@H]2[C@H](N3C(=O)[C@@H](c4ccccc4)NC3c3ccc(S(=O)(=O)O)o3)C(=O)N2[C@H]1C(=O)O (mixture of isomers) [Example 2]	32
CC1(C)S[C@@H]2[C@H](N3C(=O)[C@@H](c4ccc(O)cc4)NC3c3ccc(S(=O)(=O)O)o3)C(=O)N2[C@H]1C(=O)O (mixture of isomers) [Example 1]	32
CC1(C)S[C@@H]2[C@H](NC(=O)[C@H](N)c3ccc(O)cc3)C(=O)N2[C@H]1C(=O)O [Amoxicillin, D(-)-α-amino-p-hydroxybenzylpenicillin, reference compound]	16
CC1(C)S[C@@H]2[C@H](NC(=O)[C@H](N)c3ccccc3)C(=O)N2[C@H]1C(=O)O [Ampicillin, D(-)-α-aminobenzyl-penicillin, reference compound]	32
